The measured values listed here are drawn from ChEMBL document CHEMBL1154926.

assay: Toxicity in brine shrimp; type: organism-based; conditions: artemia, in vivo
Property: LC50 (µM)
Your answer should be a plain number; it is taken to be in µM.

input: Item under review: CC[C@@H]1C[C@@H]2C[C@H](O[C@@H]3OC[C@@H](OC)[C@H](OC)[C@H]3OC)C(C)(C)[C@H](CC(=O)O[C@H](CC)C[C@@H]3C[C@H](O[C@@H]4OC[C@@H](OC)[C@H](OC)[C@H]4OC)C(C)(C)[C@H](CC(=O)O1)O3)O2 [CYANOLIDE A] . Reported LC50?
output: 10.8
